Condition Label: 280.15 K; 101.33 kPa; Liquid; Vibrating tube method
Value Kind: mass density (kg/m3)
Answers are plain numbers, in kg/m3.

// known answers, use as guide
CCCCC(=O)[O-].C[NH2+]CCO [2-hydroxy-N-methylethanaminium pentanoate] | 1028.35
CCCC(=O)[O-].C[NH2+]CCO [N-methyl-2-hydroxyethylammonium butanoate] | 1051.38
C[NH2+]CCO.O=C[O-] [2-hydroxy-N-methylethanaminium formate] | 1138.3

Below is a list of compounds. For each, state its recorded mass density.
1. CC(=O)[O-].C[NH2+]CCO [N-methyl-2-hydroxyethylammonium acetate]
2. CC(C)C(=O)[O-].C[NH2+]CCO [2-hydroxy-N-methylethanaminium isobutyrate]
3. CCC(=O)[O-].C[NH2+]CCO [2-hydroxy-N-methylethanaminium propionate]

1: 1111.63; 2: 1054.85; 3: 1082.98
